- measured.target: T1, human CD19 exon1-3-his protein (human, UniProt P15391 20-186, limits assumed)
- T1 construct: made in HEK293E cells; also called membrane-distal end; not shown: His tag
- T1 sequence (looked up): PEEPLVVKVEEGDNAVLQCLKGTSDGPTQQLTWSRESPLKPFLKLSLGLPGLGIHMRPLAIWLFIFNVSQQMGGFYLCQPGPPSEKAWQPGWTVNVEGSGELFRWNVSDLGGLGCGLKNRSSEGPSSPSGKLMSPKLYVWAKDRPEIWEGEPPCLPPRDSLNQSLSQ
- experiment: ELISA, coated at 2 ug/mL
property: binding result

The following binders have reported results that may help.
F4.37.6 (antibody, human IgG1, V domains shown, human-murine chimeric antibody, human IgG1) VH: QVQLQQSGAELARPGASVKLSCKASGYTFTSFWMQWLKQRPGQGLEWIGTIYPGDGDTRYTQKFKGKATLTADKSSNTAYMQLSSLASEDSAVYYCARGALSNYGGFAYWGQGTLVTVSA VL: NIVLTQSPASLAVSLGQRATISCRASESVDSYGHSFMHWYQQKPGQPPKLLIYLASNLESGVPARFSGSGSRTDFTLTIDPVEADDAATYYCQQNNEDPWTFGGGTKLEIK: no binding
F4.78.1 (antibody, human IgG1, V domains shown, human-murine chimeric antibody, human IgG1) VH: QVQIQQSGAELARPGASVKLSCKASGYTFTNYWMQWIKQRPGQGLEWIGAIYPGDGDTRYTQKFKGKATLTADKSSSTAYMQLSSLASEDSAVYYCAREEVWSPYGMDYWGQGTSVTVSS VL: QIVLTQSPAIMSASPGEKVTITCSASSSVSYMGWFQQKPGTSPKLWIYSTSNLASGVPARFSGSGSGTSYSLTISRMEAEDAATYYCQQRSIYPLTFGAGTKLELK: no binding
F4.58.6 (antibody, human IgG1, V domains shown, human-murine chimeric antibody, human IgG1) VH: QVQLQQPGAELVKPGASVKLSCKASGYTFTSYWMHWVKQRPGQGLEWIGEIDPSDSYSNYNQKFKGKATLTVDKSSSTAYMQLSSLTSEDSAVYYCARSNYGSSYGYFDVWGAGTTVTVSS VL: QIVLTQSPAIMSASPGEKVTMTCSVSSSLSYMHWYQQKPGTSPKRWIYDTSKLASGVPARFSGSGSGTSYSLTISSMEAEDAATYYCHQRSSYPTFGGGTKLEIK: no binding
F5.8.6 (antibody, human IgG1, V domains shown, human-murine chimeric antibody, human IgG1) VH: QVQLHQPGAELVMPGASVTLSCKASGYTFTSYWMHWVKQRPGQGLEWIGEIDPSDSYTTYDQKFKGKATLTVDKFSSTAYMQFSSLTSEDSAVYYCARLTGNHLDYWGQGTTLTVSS VL: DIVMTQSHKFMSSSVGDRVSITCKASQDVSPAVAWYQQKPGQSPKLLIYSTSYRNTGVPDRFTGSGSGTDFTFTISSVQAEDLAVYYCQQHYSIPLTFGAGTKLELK: no binding
F3.121.4-L1H1 (antibody, mouse IgG1, kappa, V domains shown, murine IgG1 constant regions; also called humanized antibody of F3.121.4) VH: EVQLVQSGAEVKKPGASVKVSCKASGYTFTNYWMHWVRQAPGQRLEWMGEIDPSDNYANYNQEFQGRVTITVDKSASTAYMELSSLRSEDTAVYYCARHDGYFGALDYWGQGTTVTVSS VL: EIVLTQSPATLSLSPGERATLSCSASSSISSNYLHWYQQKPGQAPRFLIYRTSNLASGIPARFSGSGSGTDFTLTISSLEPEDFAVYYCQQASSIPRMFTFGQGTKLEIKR: no binding
F4.152.7 (antibody, human IgG1, V domains shown, human-murine chimeric antibody, human IgG1) VH: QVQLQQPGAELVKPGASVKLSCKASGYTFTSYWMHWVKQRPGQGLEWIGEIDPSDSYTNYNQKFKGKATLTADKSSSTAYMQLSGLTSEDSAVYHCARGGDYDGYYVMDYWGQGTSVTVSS VL: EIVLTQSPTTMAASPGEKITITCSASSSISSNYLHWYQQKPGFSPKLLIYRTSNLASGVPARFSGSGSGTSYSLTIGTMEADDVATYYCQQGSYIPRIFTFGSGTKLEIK: no binding

Continue with the next binder.
Lookup: State, in one line, measured binding result of F3.126.15 (antibody, human IgG1, V domains shown, human-murine chimeric antibody, human IgG1) VH: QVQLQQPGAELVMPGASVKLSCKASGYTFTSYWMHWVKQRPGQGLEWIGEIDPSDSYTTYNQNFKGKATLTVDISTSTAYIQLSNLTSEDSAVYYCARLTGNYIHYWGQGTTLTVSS VL: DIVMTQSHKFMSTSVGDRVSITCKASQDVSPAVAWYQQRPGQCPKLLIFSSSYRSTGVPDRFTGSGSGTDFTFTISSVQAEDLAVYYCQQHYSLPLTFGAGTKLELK
Found: no binding
